Catalogue of compounds with associated catalytic activity (%)
assay: Glutathione-peroxidase-like activity, reaction rates by the method of A. Wendel; format: biochemical; settings: relative to S-(2-phenylcarbamoyl-phenylselenyl) glutathione, taken as 100%; tert-butylhydroperoxide; in vitro
# unit: % | format: bare number

// solved cases for catalytic activity (%) follow
Input line: Consider the compound COc1ccc(NC(=O)c2ccccc2[Se]SCC(NC(=O)CCC(N)C(=O)O)C(=O)NCC(=O)O)cc1 (stereo not shown) . State its measured catalytic activity (%).
Output line: 124

Input line: Tell me measured catalytic activity (%) for NC(CCC(=O)NC(CS[Se]c1ccccc1C(=O)Nc1ccc([N+](=O)[O-])cc1)C(=O)NCC(=O)O)C(=O)O (stereo not shown) please.
Output line: 121

Input line: Please report catalytic activity (%) for the following compound: N[C@@H](CCC(=O)N[C@@H](CS[Se]c1ccccc1C(=O)Nc1ccc(Cl)c(Cl)c1)C(=O)NCC(=O)O)C(=O)O
Output line: 21

Here is another compound to look at.
Input line: Dear colleague, please send me the reported catalytic activity (%) for NC(CCC(=O)NC(CS[Se]c1cc(F)ccc1C(=O)Nc1ccccc1)C(=O)NCC(=O)O)C(=O)O (stereo not shown) when you can.
Output line: 92

###

The reader will find reported catalytic activity (%) values listed item by item below.
test: Glutathione-peroxidase-like activity, reaction rates by the method of A. Wendel; type: biochemical; settings: relative to S-(2-phenylcarbamoyl-phenylselenyl) glutathione, taken as 100%; tert-butylhydroperoxide; in vitro
Quick note: give the figure in %, leave out the unit.

A selection of reference data follows.
Input line: Provide only the value of recorded catalytic activity (%) for NC(CCC(=O)NC(CS[Se]c1cc(Cl)ccc1C(=O)Nc1ccccc1)C(=O)NCC(=O)O)C(=O)O (stereo not drawn)
Output line: 99

Input line: Annotate the molecule N[C@@H](CS[Se]c1ccccc1C(=O)NCc1ccccc1)C(=O)O with its measured catalytic activity (%).
Output line: 56

Input line: Tell me catalytic activity (%) reported for CC(=O)N[C@@H](CS[Se]c1ccccc1C(=O)Nc1ccc(F)cc1)C(=O)O
Output line: 61

Input line: Find the measured catalytic activity (%) of NC(CCC(=O)NC(CS[Se]c1ccccc1C(=O)Nc1ccccc1Cl)C(=O)NCC(=O)O)C(=O)O (stereo not drawn) and report it.
Output line: 39

Input line: Please give measured catalytic activity (%) of the following entry: COc1ccc(C(=O)Nc2ccccc2)c([Se]SCC(NC(=O)CCC(N)C(=O)O)C(=O)NCC(=O)O)c1 (stereo not drawn)
Output line: 63

Others:
Input line: Report catalytic activity (%) for N[C@@H](CS[Se]c1ccccc1C(=O)Nc1ccccc1)C(=O)O
Output line: 210

Input line: Look up catalytic activity (%) of CC(C)(S[Se]c1ccccc1C(=O)Nc1ccccc1)[C@@H](N)C(=O)O and report it.
Output line: 25

Input line: Name the recorded catalytic activity (%) of the molecule listed here: COc1cccc(C(=O)Nc2ccccc2)c1[Se]SC[C@H](N)C(=O)O
Output line: 440

Input line: Read off the recorded catalytic activity (%) for NC(CCC(=O)NC(CS[Se]c1ccccc1C(=O)Nc1ccc(C(F)(F)F)cc1)C(=O)NCC(=O)O)C(=O)O (stereo not drawn)
Output line: 49

Input line: Assign catalytic activity (%) to the following record: N[C@@H](CCC(=O)N[C@@H](CS[Se]c1ccccc1C(=O)Nc1ccccc1)C(=O)NCC(=O)O)C(=O)O
Output line: 100

###

test: Glutathione-peroxidase-like activity, reaction rates by the method of A. Wendel; type: biochemical; settings: relative to S-(2-phenylcarbamoyl-phenylselenyl) glutathione, taken as 100%; tert-butylhydroperoxide; in vitro
property.name: catalytic activity (%)
Please give a number only; it is taken to be in %.

Input line: Note catalytic activity (%) for the compound shown: NC(CCC(=O)NC(CS[Se]c1ccccc1C(=O)Nc1ccc(Cl)cc1)C(=O)NCC(=O)O)C(=O)O (centres unmarked)
Output line: 116

Input line: Supply measured catalytic activity (%) of NC(CCC(=O)NC(CS[Se]c1ccccc1C(=O)Nc1cccc(F)c1)C(=O)NCC(=O)O)C(=O)O (centres unmarked) in your reply.
Output line: 113

Input line: Please report catalytic activity (%) for the following compound: COc1ccccc1NC(=O)c1ccccc1[Se]SCC(NC(=O)CCC(N)C(=O)O)C(=O)NCC(=O)O (centres unmarked)
Output line: 37

Input line: Could you please provide reported catalytic activity (%) for CC(=O)N[C@@H](CS[Se]c1ccccc1C(=O)Nc1ccccc1)C(=O)O ? Thanks!
Output line: 40

Kindly review the next compound as well.
Input line: Tell me measured catalytic activity (%) for COc1cccc(C(=O)Nc2ccccc2)c1[Se]SCC(NC(=O)CCC(N)C(=O)O)C(=O)NCC(=O)O (centres unmarked) please.
Output line: 225
